Target: Hexokinase-4 (Homo sapiens) (UniProt P35557)
Sequence (P35557 whole entry, looked up): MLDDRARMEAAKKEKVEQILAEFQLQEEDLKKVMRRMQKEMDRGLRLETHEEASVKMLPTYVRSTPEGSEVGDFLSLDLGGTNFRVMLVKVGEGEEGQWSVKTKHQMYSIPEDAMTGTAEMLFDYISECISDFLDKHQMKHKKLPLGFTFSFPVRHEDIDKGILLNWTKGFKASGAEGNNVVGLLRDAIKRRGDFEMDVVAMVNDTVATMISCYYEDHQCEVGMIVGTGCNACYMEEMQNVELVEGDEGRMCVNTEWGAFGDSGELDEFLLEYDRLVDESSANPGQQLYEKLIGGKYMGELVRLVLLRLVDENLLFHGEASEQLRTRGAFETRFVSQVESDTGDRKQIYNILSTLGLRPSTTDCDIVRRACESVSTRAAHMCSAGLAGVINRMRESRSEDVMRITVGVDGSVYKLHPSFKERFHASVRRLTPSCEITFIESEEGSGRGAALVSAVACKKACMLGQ
Assay: hGlck enzyme activity off-target inhibitors – biochemical, recombinant hGlck, counter-screen for TbHK1 inhibitor project (AID 492951)
Conditions: G6PDH-coupled NADH absorbance 340 nm, at 10 µM
Calls of active or inactive are those of the source.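 The calls were made as follows: active = inhibition above 10%; inactive = the rest.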
# valid calls are active, inactive; nothing else

Consider the following illustrative entries.
> print(dat)
                               given.smiles  label.value
1   COc1ccc(C(=O)N(C)c2cc(Cl)ccc2C(=O)O)cc1     inactive
2  CC(C)Cc1ccc(C(=O)Nc2cc(Cl)ccc2C(=O)O)cc1       active
3       N#Cc1ccc(NC(=O)Cn2sc3ccccc3c2=O)cc1     inactive

Assay outcome for `Cc1ccc(C(=O)Nc2cc(Cl)ccc2C(=O)O)cc1C` : what was it? inactive

Assay outcome for `Cc1ccc(C(=O)Nc2cc(Cl)ccc2C(=O)O)c(C)c1` : what was it? active

Assay outcome for `CCc1ccc(C(=O)Nc2cc(Br)ccc2C(=O)O)cc1` : what was it? inactive

Assay outcome for `O=C(Nc1cc(Cl)ccc1C(=O)O)c1ccc(OC(F)(F)F)cc1` : what was it? active

Assay outcome for `COc1ccc(C(=O)Nc2cc(Cl)ccc2C(N)=O)cc1` : what was it? active

Assay outcome for `COc1ccc(C(=O)Nc2cc(Cl)c(C)cc2C(=O)O)cc1` : what was it? active

Assay outcome for `O=C(Nc1cc(Cl)ccc1C(=O)O)c1ccc(C2CCC2)cc1` : what was it? active

Assay outcome for `O=C(Cn1sc2ccccc2c1=O)NCc1ccccc1` : what was it? inactive

Assay outcome for `O=C(Cn1sc2ccccc2c1=O)Nc1ccccc1I` : what was it? active

---

Molecular target: Hexokinase-4 (Homo sapiens)
Test: hGlck enzyme activity off-target inhibitors – biochemical, recombinant hGlck, counter-screen for TbHK1 inhibitor project (AID 492951)
Conditions: G6PDH-coupled NADH absorbance 340 nm, at 10 µM
Calls of active or inactive are those of the source.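 The calls were made as follows: active = inhibition above 10%; inactive = the rest.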
# valid calls are active, inactive; nothing else

Assay outcome for `CN(C)c1ccc(NC(=O)Cn2sc3ccccc3c2=O)cc1` : what was it? active

Assay outcome for `CCCc1ccc(C(=O)Nc2cc(Cl)ccc2C(=O)O)cc1` : what was it? active

Assay outcome for `O=c1c2ccccc2sn1-c1ccc(Cl)cc1` : what was it? active

Assay outcome for `COc1ccc(NC(=O)Cn2sc3ccccc3c2=O)cc1` : what was it? inactive

Assay outcome for `C=C(C)c1ccc(C(=O)Nc2cc(Cl)ccc2C(=O)O)cc1` : what was it? active

---

Molecular target: Hexokinase-4 (Homo sapiens)
Experiment: hGlck enzyme activity off-target inhibitors – biochemical, recombinant hGlck, counter-screen for TbHK1 inhibitor project (AID 492951)
Conditions: G6PDH-coupled NADH absorbance 340 nm, at 10 µM; hits give high values
The source made the active and inactive calls.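 How the source made its calls: active means inhibition above 10%; inactive means the rest.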
experimental_endpoint: inhibition

Some solved cases for reference:
> print(dat)
                             given.smiles  experimental.endpoint  observed.value
1   COC(=O)c1ccc(Cl)cc1NC(=O)c1ccc(Cl)cc1             inhibition        inactive
2  O=C(Nc1cc(Cl)ccc1C(=O)O)c1ccc2ccccc2c1             inhibition  11.5% (active)
3             Cc1ccc(-n2sc3ccccc3c2=O)cc1             inhibition  26.1% (active)
4         O=c1c2cc(F)ccc2sn1-c1ccc(Cl)cc1             inhibition    40% (active)
5       N#Cc1ccccc1NC(=O)Cn1sc2ccccc2c1=O             inhibition  10.9% (active)

Please tell me: inhibition of `CCC(C)(C)c1ccc(C(=O)Nc2cc(Cl)ccc2C(=O)O)cc1` , system Hexokinase-4 (Homo sapiens)? 26% (active)

Please tell me: inhibition of `COc1ccc(C(=O)Nc2cc(Cl)ccc2C(=O)O)cc1` , system Hexokinase-4 (Homo sapiens)? 7.8% (inactive)

Please tell me: inhibition of `CC(C)(C)c1ccc(C(=O)Nc2cc(Cl)ccc2C(=O)O)cc1` , system Hexokinase-4 (Homo sapiens)? inactive

Please tell me: inhibition of `O=C(Cn1sc2ccccc2c1=O)Nc1cccc(C(F)(F)F)c1` , system Hexokinase-4 (Homo sapiens)? 9.3% (inactive)

Please tell me: inhibition of `COc1ccc(C(=O)Nc2cc(Br)ccc2C(=O)O)cc1` , system Hexokinase-4 (Homo sapiens)? inactive

Please tell me: inhibition of `CCCCCCCC(=O)Nc1cc(Cl)ccc1C(=O)O` , system Hexokinase-4 (Homo sapiens)? inactive

Please tell me: inhibition of `CC(C)c1ccc(C(=O)Nc2cc(Cl)ccc2C(=O)O)cc1` , system Hexokinase-4 (Homo sapiens)? inactive

Please tell me: inhibition of `O=C(Nc1cc(Cl)ccc1C(=O)O)c1ccc(-c2cccs2)cc1` , system Hexokinase-4 (Homo sapiens)? 30.3% (active)

Please tell me: inhibition of `COc1ccc(C(=O)Nc2cc(Cl)ccc2C#N)cc1` , system Hexokinase-4 (Homo sapiens)? inactive

Please tell me: inhibition of `O=c1cc(-c2ccccc2)sn1-c1ccccc1` , system Hexokinase-4 (Homo sapiens)? inactive

Please tell me: inhibition of `CC(=O)Nc1ccc2sn(-c3ccccc3)c(=O)c2c1` , system Hexokinase-4 (Homo sapiens)? 51.9% (active)

Please tell me: inhibition of `N#Cc1ccc2c(=O)n(-c3ccccc3)sc2c1` , system Hexokinase-4 (Homo sapiens)? 54% (active)

Please tell me: inhibition of `COc1ccc(C(=O)Nc2cc(Cl)c(Br)cc2C(=O)O)cc1` , system Hexokinase-4 (Homo sapiens)? 22.3% (active)

Please tell me: inhibition of `COc1ccc(NC(=O)c2ccccc2C(=O)O)cc1` , system Hexokinase-4 (Homo sapiens)? 0.9% (inactive)

Please tell me: inhibition of `O=c1c2cc(Br)ccc2sn1-c1ccccc1` , system Hexokinase-4 (Homo sapiens)? 38.4% (active)
